Reference source for all entries: the antibiotic and cytotoxicity screens of Wong et al. (2023)

Test system: HepG2
protocol.description: cytotoxicity call (relative viability < 0.9)
study.conditions: 10 µM
Among all 39,000 compounds or so, about 3,300 (8.5%) were called active. The sample as a whole holds a higher share of actives than the screen did.
The reply should name one outcome from true for active, false for inactive

# input Just curious, what result did `CC(=O)O[C@H]1C(=O)[C@]2(C)[C@@H](O)C[C@H]3OC[C@@]3(OC(C)=O)[C@@H]2[C@H](OC(=O)c2ccccc2)[C@]2(O)C[C@H](O)C(C)=C1C2(C)C` get here?
# output true

# input Tell me the recorded outcome of this test for `C[As](C)SC[C@H](NC(=O)CC[C@H](N)C(=O)O)C(=O)NCC(=O)O` .
# output false

# input What is the recorded call for this compound in the test? Cl.NCC(O)c1ccc(O)cc1 (stereo unspecified)
# output false

# input Each compound tested received a call. Report the one for `C[C@@H]1CN([C@@H](C)CO)C(=O)CCCn2cc(nn2)CO[C@H]1CN(C)C(=O)Oc1cccc2ccccc12` .
# output false

# input # lookup: test call for `Cn1c(CCN)nc2ccccc21`
# output false

# input What outcome does the record of this test show for `Cc1cc2ccccc2n1CCN` ?
# output false

# input So what was the verdict on CC=C(C)C(=O)OC1CC(OC(C)=O)C2(C(=O)OC)COC3C2C12COC(O)(C(=O)OC)C2C(C)(C12OC1(C)C1CC2OC2OC=CC21O)C3O (stereo unspecified) in this test?
# output false

# input Which result was noted for this compound in the test: `O=C1COC2(CNC2)CN1`
# output false

# input I'd appreciate the recorded outcome for `c1cc(N2CCNCC2)ccn1` from this test.
# output false

# input Test call for this compound, please: `O=C1[O][SbH]23[O]C(=O)C([O]2)C2[O][SbH]4([O]C(=O)C([O]4)C1[O]3)[O]C2=O`
# output true

# input Query: recorded result category for `COc1ccc(C[C@@H](N)c2ccc(C)cn2)cc1OC` in this test
# output false

# input What classification did `CN[C@H]1C[C@@H](N)[C@H](O)[C@@H](O[C@@H]2O[C@H](CO)[C@H](O)[C@@H]3O[C@@]4(O[C@H]23)O[C@H]([C@@H](N)CO)[C@H](O)[C@H](O)[C@H]4O)[C@@H]1O` end up with in this test?
# output false

# input Recorded test call requested for CCC1(C2=NCCN2)Cc2ccccc2O1.Cl (stereo unspecified)
# output false

# input Short answer needed: outcome of this test for `Cc1nccc2c1[nH]c1cc(O)ccc12` ?
# output true

# input Test call for this compound, please: `CCn1nc(-c2cccnc2)nc2c(=O)n(C)c(=O)nc1-2`
# output true

# input What is the recorded call for this compound in the test? `Cc1nc[nH]c1CCN`
# output false

# input Could you check what this test reported for `NCCc1cccc2ccccc12` ?
# output false

# input Outcome logged for `CN(C)[C@@H]1C(=O)[C@@H](C(N)=O)C(=O)[C@@]2(O)C(=O)[C@H]3C(=O)c4c(O)ccc(Cl)c4[C@@](C)(O)[C@H]3C[C@@H]12` in this assay:
# output false

# input Query: recorded result category for CC(=O)OC1C(=O)C2(C)C(O)CC3OCC3(OC(C)=O)C2C(OC(=O)c2ccccc2)C2(O)CC(O)C(C)=C1C2(C)C (stereo unspecified) in this test
# output true

# input Recorded test call requested for `Cn1cc(C(=O)Nc2nn[nH]n2)c2ccccc21`
# output false

# input Tell me the recorded outcome of this test for `Cc1c(N)nc([C@H](CC(N)=O)NC[C@@H](N)C(N)=O)nc1C(=O)N[C@H](C(=O)N[C@@H](C)[C@H](O)[C@@H](C)C(=O)N[C@@H](C(=O)NCCc1nc(-c2nc(C(=O)NCCC[S+](C)C)cs2)cs1)[C@@H](C)O)[C@@H](O[C@H]1O[C@H](CO)[C@H](O)[C@@H](O)[C@H]1O[C@H]1O[C@H](CO)[C@@H](O)[C@H](OC(N)=O)[C@@H]1O)c1cnc[nH]1` .
# output false

# input Per the records of this test, what outcome belongs to `C[C@]12CC[C@](C)(O1)[C@H](C(=O)O)[C@@H]2C(=O)O` ?
# output false

# input State the result this test recorded for `C[C@H](CO)N1C[C@H](C)[C@H](CN(C)C(=O)Oc2ccc3ccccc3c2)OCc2cn(nn2)CCCC1=O` .
# output false

# input Can you look up the reported call for `C[C@@H]1CN([C@H](C)CO)C(=O)CCCn2nncc2CO[C@@H]1CN(C)C(=O)Oc1ccc2ccccc2c1` for me?
# output false

# input Call for entry `COc1ccc(CCN)cc1OC` :
# output false

# input What classification did `N[C@@]1(C(=O)O)CC[C@@H](C(=O)O)C1.N[C@]1(C(=O)O)CC[C@H](C(=O)O)C1` end up with in this test?
# output false

# input Please state the recorded outcome for this compound: `CCN(CC)C(=O)C1=NO[C@]2(CCNC2)C1`
# output false

# input // return assay outcome for `C1CCC(NC2CCCC2)CC1`
# output false

# input Outcome? `CCn1cc2nc(N3CCNCC3)[nH]cc-2c1=O`
# output false

# input Answer briefly: the call reported for `Nc1nc(N)nc(NC2CC2)n1` in this assay.
# output false

# input // return assay outcome for O=C(O)CN1C[C@@H]2C(NC(=O)c3ccno3)[C@H]2C1 (stereo partly specified)
# output false

# input Please indicate how the test categorized `O=C(NCNC(=O)N[C@H]1C(=O)NC(=O)N1CO)N[C@H]1C(=O)NC(=O)N1CO` .
# output false

# input # outcome recorded in this test, key = `CC(C)[C@H](N)C(=O)N1CCC[C@H]1B(O)O`
# output false

# input Outcome? `Br.COC(=O)C1=CCCN(C)C1`
# output true

# input Entry `N#Cc1c(Cl)c(Cl)c(Cl)c(C#N)c1Cl` : call = ?
# output true

# input Tell me the recorded outcome of this test for `NCC[C@H]1COc2ccccc2O1` .
# output false

# input // outcome(item) with item = `C1CNC[C@@H](N2CCCC2)C1`
# output false

# input Query: recorded result category for `C[C@@]1(C(=O)O)[C@H]2CC[C@@H](O2)[C@@]1(C)C(=O)O` in this test
# output true

# input Per the assay record, what outcome was assigned to C=CCN1CCC23c4c5ccc(O)c4OC2C(=O)CCC3(O)C1C5.Cl (stereo unspecified) ?
# output false

* * *

Test system: HepG2
protocol.description: cytotoxicity call (relative viability < 0.9)
study.conditions: 10 µM
Among all 39,000 compounds or so, about 3,300 (8.5%) were called active. What follows is part of a selection rich in actives, with near analogues and random picks from the rest.
Outcomes you can answer with include only these: active, inactive

# input Please state the recorded outcome for this molecule: `Cc1cccc([C@H](CN)N(C)C)c1`
# output inactive

# input Give the logged outcome of this assay for the following molecule: CC1=C(O)C(=O)C=C2C1=CC=C1C2(C)CCC2(C)C3CC(C)(C(=O)O)CCC3(C)CCC12C (centres undefined)
# output active

# input Which outcome did this test record for the molecule `Cc1nc(N2CCN(C)CC2)ccc1N` ?
# output inactive

# input Hi, sorry to bother you, what did the test record for COC(=O)C1(O)C[C@H]2CC[C@@H](C1)N2C (some centres undefined) ?
# output inactive

# input Please indicate how the test categorized `NC[C@@H](CC(=O)O)c1ccc(Cl)cc1` .
# output inactive

# input Returns: the outcome recorded for `CC(=O)OC[C@]12CCC(C)=C[C@H]1O[C@@H]1[C@H](O)[C@@H](OC(C)=O)[C@@]2(C)[C@]12CO2` in this assay.
# output active

# input # fetch the recorded call for `O=C(CN1CCOCC1)c1ccc(O)cc1O` here
# output inactive

# input So what was the verdict on `CC[C@H]1/C=C/C=C/C[C@@H](C)[C@H](O)[C@@](C)(O)C(=O)[C@@H](C)[C@H](O)[C@@H](C)C(=O)[C@@H](C)[C@H](O)[C@@H](C)/C=C/C(=O)O[C@@H]2[C@H](C)[C@H](CC1)O[C@]1(CC[C@H](C)[C@H](C[C@@H](C)O)O1)[C@H]2C` in this test?
# output inactive

# input Recorded test call requested for `NCCNC[C@@H](N)CCCNC(N)=N[N+](=O)[O-].O=CC(F)(F)F`
# output inactive

* * *

System: HepG2
protocol.description: cytotoxicity call (relative viability < 0.9)
study.conditions: 10 µM
Among all 39,000 compounds or so, about 3,300 (8.5%) were called active. The sample holds actives, similar compounds and a random draw of the others, so the mix is not that of the screen.
reported.metric: cytotoxicity call

# structure.smiles, result
measured = [
    ("CN[C@@H]1[C@@H](O)[C@@H](O[C@@H]2[C@H](O)[C@@H](O[C@H]3O[C@H]([C@@H](C)O)[C@@H](O)[C@H](O)[C@H]3N)[C@H](N)C[C@@H]2N)OC[C@]1(C)O", "inactive"),
    ("[N-]=[N+]=Nc1ccccc1C[C@@]1(C(=O)NCCN2CCOCC2)N=C(c2ccc(OCCCO)cc2)O[C@@H]1c1ccccc1N=[N+]=[N-]", "inactive"),
]
